test: S6 kinase pathway phospho-S6 level changes – cell-based, A549, cytoblot, luminescence, serum-stimulated, primary screen (AID 1158); settings: 5 h, higher = more signal;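 also: serum-stimulated A549 lung adenocarcinoma cells; signal is phosphorylated S6 detected by cytoblot immunostaining with HRP secondary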
MEASUREMENT NAME: z-score
Answers are plain numbers.

Example entries and their recorded answers appear below.
MOLECULE	MEAS VALUE
COC(=O)[C@@]1(Cc2ccccc2)[C@H]2c3cc(C(=O)N4CCCC4)n(Cc4ccccc4)c3C[C@H]2CN1C(=O)c1ccccc1	-0.276
O=C1NC(=O)C2C1C=CC(C(O)c1ccc(-c3ccccc3)s1)N2Nc1ccccn1 (centres undefined)	-0.697
O=C1NC(=O)C2C1C=CC(C(O)CCc1ccccc1)N2Nc1ccccn1 (centres undefined)	1
COC(=O)C(CC#Cc1ccc2c(c1)[C@]1(C(=O)N2)[C@H](c2ccc(O)cc2)N2[C@H](c3ccccc3)[C@H](c3ccccc3)OC(=O)[C@H]2[C@@H]1C(=O)O)C(=O)OC	-0.351
COC(=O)[C@@]1(Cc2ccc(F)cc2)[C@H]2c3cc(C(=O)N4CCCC4)n(Cc4ccccc4)c3C[C@H]2CN1C(=O)c1ccccc1	0.178
O=C1OCCC=C[C@H]2OC34C=CCN(Cn5nnc6ccccc65)C(=O)[C@H]3N(CCCCCO)C(=O)[C@@H]4C12 (some centres undefined)	0.0848
CCCN1C(=O)[C@@H]2Cc3c([nH]c4ccccc34)[C@@H](c3cccc(O)c3)N2C1=O	0.257
COCCCNC(=O)[C@@H]1c2ccccc2C(=O)N(Cc2cc(F)cc(C(F)(F)F)c2)[C@H]1c1ccc(CO)cc1	-0.731

State recorded z-score for all listed molecules.
1. Cc1ccc(F)cc1S(=O)(=O)N[C@@H]1CCN(C(=O)c2ccc(OC(C)C)cc2)C1
2. COc1ccc([Si](C)(C)[C@@H]2[C@@H](CCO)O[C@]3(C(=O)N(Cc4ccccc4)c4ccc(N5CCCCC5=O)cc43)[C@H]2C)cc1
3. C=CCNC(=O)[C@H]1[C@@H]2C(=O)O[C@@H](c3ccccc3)[C@@H](c3ccccc3)N2[C@@H](c2ccc(O)cc2)[C@]12C(=O)N(C(=O)OCCOC)c1ccc(C#CC3(O)CCCCCC3)cc12
4. O=C1C2C=CC(C(O)c3cccc4ccccc34)N(Nc3ccccc3)C2C(=O)N1c1ccccc1 (centres undefined)
5. CCCc1cc2c(n1Cc1ccc(OC)cc1)C(C)C1CN(C(=O)c3ccccc3)C(C)(C(=O)OC)C21 (centres undefined)

1. -0.102
2. 0.863
3. 0.281
4. -0.594
5. -0.57

###

target: Focal adhesion kinase 1 (Homo sapiens); assay: PTK2 protein binding on printed compound slides – biochemical, small-molecule microarray, 635/667 nm fluorescence, BSA, DTT, primary screen (AID 1130); settings: 635 nm fluorescence, higher = more signal;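 also: composite of spot emission at 667 nm and signal to noise over triplicate slides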
Dear colleague, classification is by composite z-score, with ranges listed here: low = under 0.1, mid = from 0.1 up to 0.8, high = 0.8 and over

Would you please look over these solved cases?
COMPOUND	ASSIGNED CLASS
C=C(CCCC)/C(=C/C[C@@H](OC(=O)c1ccncc1)c1ccccc1OCCO)c1cc(C(=O)OC)ccc1OC	high
[N-]=[N+]=Nc1ccccc1[C@H]1OC(c2ccc(OCCCO)cc2)=N[C@@]1(Cc1ccccc1)C(=O)NCc1ccccc1	mid
COCCOC(=O)N1C(=O)[C@@]2(c3cc(C#Cc4ccc(OC)cc4)ccc31)[C@H](C(N)=O)[C@H]1C(=O)O[C@H](c3ccccc3)[C@H](c3ccccc3)N1[C@@H]2c1ccc(OCCO)cc1	mid
[N-]=[N+]=NCc1ccccc1[C@H]1OC(c2ccc(OCCCO)cc2)=N[C@@]1(Cc1ccccc1N=[N+]=[N-])C(=O)N1CCCCC1	mid
CN(C)C(=O)[C@@]1(CCC(=O)OC(C)(C)C)COC(c2ccc(OCCCO)cc2)=N1	high
CCCN1C(=O)[C@@H]2Cc3c([nH]c4ccccc34)[C@@H](c3cccc(O)c3)N2C1=O	mid
CCN(CC)c1ccc(N2CC=CC34O[C@@H]5/C=C\CCCOC(=O)C5[C@H]3C(=O)N(CCCCCO)[C@@H]4C2=O)cc1 (some centres not stated)	low
NC(=O)NCC#Cc1ccc2c(c1)[C@]1(C(=O)N2)[C@H](c2ccc(OCCO)cc2)N2[C@H](c3ccccc3)[C@H](c3ccccc3)OC(=O)[C@H]2[C@@H]1C(=O)N1CCN(c2ncccn2)CC1	low

Sort `COCCCNC(=O)[C@]1(CCS(=O)(=O)c2ccccc2)N=C(c2ccc(OCCCO)cc2)O[C@@H]1c1ccccc1` into one of the categories.
high

Which band does `COC(=O)[C@@]1(Cc2ccccc2)[C@H]2c3cc(C(=O)N(C)C)n(Cc4ccc(O)c(OC)c4)c3C[C@H]2CN1C(=O)c1ccccc1` fall in?
high

Band assignment needed for `C=CCNC(=O)[C@H]1[C@@H]2C(=O)O[C@@H](c3ccccc3)[C@@H](c3ccccc3)N2[C@@H](c2ccc(OCCO)cc2)[C@]12C(=O)N(C(=O)OCCOC)c1ccc(C#CC3=CCCCC3)cc12` please.
mid

Exam item: assign `COC(=O)[C@@]1(Cc2ccccc2)[C@H]2c3cc(C(=O)N4CCCC4)n(Cc4ccc(OC(F)(F)F)cc4)c3C[C@H]2CN1C(=O)c1ccccc1` to the correct category.
mid

Could you place `C[N+](C)(C)CCCC[C@@H]1NC(=O)[C@@H]2C[C@H](C(=O)NCCCCCNC(=O)CS)[C@H](c3cccc(OCCO)c3)N2C1=O` in its proper category? Many thanks.
low

###

experiment: JC-1 mitochondrial signal, unstimulated HepG2 cells – cell-based, JC-1 fluorescence, 24 h, 100 nL compound, profiling panel (AID 1167); conditions: HepG2 mitochondrial potential, higher = more signal; also: test concentration not given here
MEASUREMENT NAME: z-score
Give bare numbers.

Observe how each entry below is paired with its result.
MOLECULE	z-score
CN(C)C(=O)[C@@]1(CCS(=O)(=O)c2ccccc2)N=C(c2ccc(OCCCO)cc2)O[C@H]1c1ccccc1CN=[N+]=[N-]	0.548
CC(C)c1ccc(NN2C(C(O)c3ccccn3)C=CC3C(=O)N(c4ccccc4)C(=O)C32)cc1 (stereo unspecified)	-0.357
CO[C@H]1O[C@H](CO)[C@@H](OC(=O)Nc2cccc(F)c2)[C@H](OC(=O)Nc2ccc3c(c2)OCO3)[C@H]1OC(=O)Nc1ccc2c(c1)OCO2	-0.216
COC(=O)C(CC#Cc1ccc2c(c1)[C@]1(C(=O)N2)[C@H](c2ccc(O)cc2)N2[C@H](c3ccccc3)[C@H](c3ccccc3)OC(=O)[C@H]2[C@@H]1C(N)=O)C(=O)OC	1.44
COCCOC(=O)N1C(=O)[C@@]2(c3cc(C#CCCO)ccc31)[C@H](c1ccc(OCCO)cc1)N1[C@H](c3ccccc3)[C@H](c3ccccc3)OC(=O)[C@H]1[C@@H]2C(=O)N1CCc2cc(OC)c(OC)cc2C1	-0.0698

Below is a list of molecules. For each, state its recorded z-score.
1. CC(C)CNC(=O)[C@@]1(c2ccc([N+](=O)[O-])cc2)CC(=O)N(C(C)C)[C@@H]1c1ccc(CO)cc1
2. COCCOC(=O)N1C(=O)[C@@]2(c3cc(C#CCC(C(=O)OC)C(=O)OC)ccc31)[C@H](C(=O)N1CCCCCCC1)[C@H]1C(=O)O[C@H](c3ccccc3)[C@H](c3ccccc3)N1[C@@H]2c1ccc(O)cc1
3. COc1ccc(C(=O)Nc2ccc3c(c2)[C@]2(O[C@@H](CCO)[C@H]([Si](C)(C)c4ccc(OC)cc4)[C@H]2C)C(=O)N3Cc2ccccc2)cc1
4. CCCNC(=O)[C@@]1(Sc2ccc(C)cc2)CC(=O)N(Cc2ccccc2)[C@@H]1c1ccc(CO)cc1I
5. C[N+](C)(C)CCCC[C@@H]1NC(=O)[C@@H]2C[C@H](C(=O)O)[C@H](c3cccc(OCCO)c3)N2C1=O

1: 0.621; 2: 0.503; 3: 0.00933; 4: -0.901; 5: 2.43

###

experiment: compound effects on differentiated 3T3-L1 adipocyte viability – cell-based, 3T3-L1 adipocytes, calcein-AM fluorescence, 48 h, basal, profiling panel (AID 1163); conditions: 3T3-L1 adipocytes viability, higher = more signal; also: test concentration not given here
MEASUREMENT NAME: z-score

State recorded z-score for all listed molecules.
1. NC(=O)[C@H]1[C@@H]2C(=O)O[C@@H](c3ccccc3)[C@@H](c3ccccc3)N2[C@@H](c2ccc(O)cc2)[C@]12C(=O)Nc1ccc(C#CC3(O)CCCCCC3)cc12
2. O=C1OCC=C[C@H]2OC34C=CCN(CCN5CCOCC5)C(=O)[C@H]3N(CCCCCO)C(=O)[C@@H]4[C@@H]12 (stereo not given in full)
3. COCCOC(=O)N1C(=O)[C@@]2(c3cc(C#Cc4ccc(OC)cc4)ccc31)[C@H](C(=O)N1CCc3cc(OC)c(OC)cc3C1)[C@H]1C(=O)O[C@H](c3ccccc3)[C@H](c3ccccc3)N1[C@@H]2c1ccc(O)cc1
4. CC1CC/C=C\[C@H]2OC34C=CCN(c5ccc(Cl)cc5)C(=O)[C@H]3N(C(CO)C(C)C)C(=O)[C@]4(C)C2C(=O)O1 (stereo not given in full)

1. 1.54
2. 0.277
3. 0.376
4. -1.06

molecule `CCOC(=O)C[C@H]1[C@H](OC(=O)c2cc3ccccc3oc2=O)[C@@H](NC(=O)c2ccc3ccccc3n2)c2cc(OCCCO)ccc2N1C(=O)c1ccc2ccccc2n1` , z-score observed: 1.27
